Provenance of the data: paper PMC9482650

tested_on: T1, DVL1, O14640
T1 sequence (O14640 246-333, limits assumed, looked up): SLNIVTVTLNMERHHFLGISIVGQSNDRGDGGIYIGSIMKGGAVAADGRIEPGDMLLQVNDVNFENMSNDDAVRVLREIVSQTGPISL
assay_overview: holdup assay
Set-up: key: below the threshold = too weak to quantify, mostly under pKd 3.1 to 4
condition_notes: plain residues with an end cap or a label only (N-terminal biotin on a linker: ttds)
quantity_measured: pKd

> print(dat)
                         binder  quantity.measured      reported.result
1   KLVIKTETTV [RASSF6, Q6ZTQ3]                pKd  below the threshold
2  SSIDLWETAL [SLC15A5, A6NIM6]                pKd  below the threshold
3     SGGKRKETLV [NET1, Q7Z628]                pKd  below the threshold
